molecular target: human OX1 receptor (Homo sapiens, UniProt O43613); construct: expressed in transfected cells; host or cells: CHO cells; assay: Measurement of orexin receptor antagonistic activity (calcium fluorescence, FLIPRtetra); type: cell-based; conditions: CHO, 10 μM test compound; CHO cells expressing human OX1 receptor; OX-A 1 nM; read-out: Human Orexin1 receptor inhibition (at 10 μM)
Sequence (O43613 whole entry): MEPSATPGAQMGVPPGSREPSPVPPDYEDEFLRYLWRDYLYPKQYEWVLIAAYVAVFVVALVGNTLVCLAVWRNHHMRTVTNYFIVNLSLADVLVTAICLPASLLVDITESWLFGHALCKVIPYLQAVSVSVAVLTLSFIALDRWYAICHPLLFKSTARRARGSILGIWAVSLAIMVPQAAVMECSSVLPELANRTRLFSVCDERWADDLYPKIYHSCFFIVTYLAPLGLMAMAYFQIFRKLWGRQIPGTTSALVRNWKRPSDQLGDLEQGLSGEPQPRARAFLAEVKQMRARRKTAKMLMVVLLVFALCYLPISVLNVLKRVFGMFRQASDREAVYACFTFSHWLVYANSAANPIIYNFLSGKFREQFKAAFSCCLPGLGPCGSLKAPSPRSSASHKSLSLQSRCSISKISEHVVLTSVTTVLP
Catalogue of inhibition at 10 µM values
Give the number; % is assumed, so skip it.

{"columns": ["COMPOUND_STRING", "inhibition at 10 µM [%]"],
 "data": [
  ["Cc1cc(N2CCN(C(=O)c3cc(F)c(F)cc3-n3nccn3)C[C@H](C)O2)nc(C(F)(F)F)n1", 100],
  ["Cc1cc(N2CCN(C(=O)c3cc(Br)ccc3-n3nccn3)CCO2)nc(C)n1", 83],
  ["CCc1ccnc(N2CCN(C(=O)c3ccccc3-n3nccn3)[C@H](C)CO2)n1", 81],
  ["Cc1ccc(-n2nccn2)c(C(=O)N2CCON(c3ncc(C4CC4)cn3)CC2)c1", 93],
  ["Cc1ccc(-n2nccn2)c(C(=O)N2CCN(c3ncc4sccc4n3)OC[C@H]2C)c1", 101]
]}

Query string: Checklist item: inhibition at 10 µM tested on human OX1 receptor (Homo sapiens, UniProt O43613), entry Cc1cc(C)nc(N2CCN(C(=O)c3ccccc3-c3nccs3)C[C@H](C)O2)c1 , value?
Result string: 100

Query string: Checklist item: inhibition at 10 µM tested on human OX1 receptor (Homo sapiens, UniProt O43613), entry COc1cccc(OC)c1C(=O)N1CCON(c2nc(C)cc(C)n2)CC1 , value?
Result string: 23

Query string: Checklist item: inhibition at 10 µM tested on human OX1 receptor (Homo sapiens, UniProt O43613), entry Cc1cc(C)nc(N2CCN(C(=O)c3ccccc3-c3ccco3)CCO2)n1 , value?
Result string: 85

Query string: Checklist item: inhibition at 10 µM tested on human OX1 receptor (Homo sapiens, UniProt O43613), entry Cc1cccc(N2CCN(C(=O)c3ccccc3-c3nccs3)C[C@H](C)O2)n1 , value?
Result string: 101

----------
target: human OX2 receptor (Homo sapiens); construct: expressed in transfected cells; host or cells: CHO cells; test: Measurement of orexin receptor antagonistic activity (calcium fluorescence, FLIPRtetra); format: cell-based; settings: CHO, 10 μM test compound; CHO cells expressing human OX2 receptor; OX-A 0.3 nM; read-out: Human Orexin2 receptor inhibition (at 10 μM)
Sequence (O43614 whole entry): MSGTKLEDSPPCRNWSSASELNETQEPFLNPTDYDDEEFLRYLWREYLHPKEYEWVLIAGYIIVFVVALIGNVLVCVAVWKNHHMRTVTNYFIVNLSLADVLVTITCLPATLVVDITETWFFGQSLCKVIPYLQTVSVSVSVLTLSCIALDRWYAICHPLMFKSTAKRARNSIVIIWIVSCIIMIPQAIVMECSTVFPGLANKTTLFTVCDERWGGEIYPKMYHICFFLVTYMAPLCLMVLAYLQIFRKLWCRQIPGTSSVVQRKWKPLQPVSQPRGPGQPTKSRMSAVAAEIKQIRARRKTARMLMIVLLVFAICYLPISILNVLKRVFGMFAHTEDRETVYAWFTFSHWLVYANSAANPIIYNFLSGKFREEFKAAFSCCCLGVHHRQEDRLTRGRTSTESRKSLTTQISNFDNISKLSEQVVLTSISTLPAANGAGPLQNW
Catalogue of inhibition at 10 µM values
Give the number; % is assumed, so skip it.

Sample answers from the record:
{"columns": ["COMPOUND", "inhibition at 10 µM (%)"],
 "data": [
  ["Cc1nccc(N2C[C@H](C)N(C(=O)c3ccccc3-c3nccs3)[C@H](C)CO2)n1", 102],
  ["Cc1ccc(-n2nccn2)c(C(=O)N2CCON(c3ncc4ccccc4n3)CC2)c1", 90]
]}

Query string: Checklist item: inhibition at 10 µM tested on human OX2 receptor (Homo sapiens), entry Cc1ccc(-n2nccn2)c(C(=O)N2CCON(c3nc4ccc(Cl)cc4o3)CC2)c1 , value?
Result string: 98

Query string: Checklist item: inhibition at 10 µM tested on human OX2 receptor (Homo sapiens), entry Cc1cc(N2CCN(C(=O)c3c(C)cccc3-c3ncccn3)CCO2)nc(C)n1 , value?
Result string: 101

Query string: Checklist item: inhibition at 10 µM tested on human OX2 receptor (Homo sapiens), entry Cc1cc(N2CCN(C(=O)c3ccccc3-n3nccn3)CCO2)nc(C)n1 , value?
Result string: 101

Query string: Checklist item: inhibition at 10 µM tested on human OX2 receptor (Homo sapiens), entry COc1cncc(N2CCN(C(=O)c3cc(C)ccc3-n3nccn3)[C@H](C)CO2)c1 , value?
Result string: 67

Query string: Checklist item: inhibition at 10 µM tested on human OX2 receptor (Homo sapiens), entry Cc1cc(N2C[C@H](C)N(C(=O)c3ccccc3-c3nccs3)[C@H](C)CO2)nc(C)n1 , value?
Result string: 99
